Data provenance: ChEMBL document CHEMBL1151684

Overview of recorded GI50 for various compounds
test system: HT-29; test: Growth inhibition of human HT-29 cells after 48 hrs by sulforhodamine B assay; format: functional; conditions: HT-29, 48 h
Give the value, in units of µM, as a plain number.

Here are 5 compounds together with their reported answers.
Qu. Consider the compound COc1cc(-c2nc(-c3n[nH]c(=S)o3)cc3c2[nH]c2ccccc23)ccc1O and give its recorded GI50.
Ans. 17.3

Qu. Consider the compound S=c1[nH]nc(-c2cc3c([nH]c4ccccc43)c(-c3ccccc3)n2)o1 and give its recorded GI50.
Ans. 25.5

Qu. Consider the compound O=[N+]([O-])c1cccc(-c2nc(-c3n[nH]c(=S)o3)cc3c2[nH]c2ccccc23)c1 and give its recorded GI50.
Ans. 27.9

Qu. Consider the compound CSc1nnc(-c2cc3c([nH]c4ccccc43)c(-c3ccc(O)cc3)n2)o1 and give its recorded GI50.
Ans. 12.8

Qu. Consider the compound O=[N+]([O-])c1ccc(-c2nc(-c3n[nH]c(=S)o3)cc3c2[nH]c2ccccc23)cc1 and give its recorded GI50.
Ans. 31.3

Please turn your attention to the following entry.
Qu. Consider the compound CN(C)c1ccc(-c2nc(-c3n[nH]c(=S)o3)cc3c2[nH]c2ccccc23)cc1 and give its recorded GI50.
Ans. 40.5

---

Overview of recorded GI50 for various molecules
test system: HT-29; assay: Growth inhibition of human HT-29 cells after 48 hrs by sulforhodamine B assay; type: functional; conditions: HT-29, 48 h
Give the value, in units of µM, as a plain number.

Qu. Consider the molecule CSc1nnc(-c2cc3c([nH]c4ccccc43)c(-c3ccccc3)n2)o1 and give its recorded GI50.
Ans. 16.2

Qu. Consider the molecule COc1cc(-c2nc(-c3nnc(SC)o3)cc3c2[nH]c2ccccc23)ccc1O and give its recorded GI50.
Ans. 7.31

More entries:
Qu. Consider the molecule CSc1nnc(-c2cc3c([nH]c4ccccc43)c(-c3ccccc3Cl)n2)o1 and give its recorded GI50.
Ans. 8.02

Qu. Consider the molecule COc1ccc(-c2nc(-c3n[nH]c(=S)o3)cc3c2[nH]c2ccccc23)cc1 and give its recorded GI50.
Ans. 20.3

---

experiment: Growth inhibition of human PCO3 cells after 48 hrs by sulforhodamine B assay; assay type: functional; conditions: PCO3, 48 h
Overview of recorded LC50 (concentration killing 50% of cells) for various molecules

Qu. Consider the molecule CSc1nnc(-c2cc3c([nH]c4ccccc43)c(-c3ccccc3)n2)o1 and give its recorded LC50 (concentration killing 50% of cells).
Ans. > 100 µM

More entries:
Qu. Consider the molecule O=[N+]([O-])c1cccc(-c2nc(-c3n[nH]c(=S)o3)cc3c2[nH]c2ccccc23)c1 and give its recorded LC50 (concentration killing 50% of cells).
Ans. > 100 µM

Qu. Consider the molecule COc1cc(-c2nc(-c3nnc(SC)o3)cc3c2[nH]c2ccccc23)ccc1O and give its recorded LC50 (concentration killing 50% of cells).
Ans. > 100 µM

---

Overview of recorded GI50 for various compounds
system: UACC-62; assay: Growth inhibition of human UACC-62 cells after 48 hrs by sulforhodamine B assay; type: functional; conditions: UACC-62, 48 h
Give the value, in units of µM, as a plain number.

Qu. Consider the compound S=c1[nH]nc(-c2cc3c([nH]c4ccccc43)c(-c3ccccc3Cl)n2)o1 and give its recorded GI50.
Ans. 18.1

Qu. Consider the compound CN(C)c1ccc(-c2nc(-c3n[nH]c(=S)[nH]3)cc3c2[nH]c2ccccc23)cc1 and give its recorded GI50.
Ans. 1.74

Qu. Consider the compound Nn1c(-c2cc3c([nH]c4ccccc43)c(-c3ccccc3)n2)n[nH]c1=S and give its recorded GI50.
Ans. 24.3

Qu. Consider the compound O=[N+]([O-])c1ccc(-c2nc(-c3n[nH]c(=S)o3)cc3c2[nH]c2ccccc23)cc1 and give its recorded GI50.
Ans. 38
